- Test system: HCV
- assay_method_text: Anti-HCV activity in Huh-Luc/neo cell line, luciferase activity after 3-day treatment
- Assay type: cell-based, Hepatitis C virus
- applied_conditions: Hepatitis C virus, 72 h; at 3 μM, Huh-Luc/neo cells, 3 days; read-out: HCV percent of inhibition
- Method: The antiviral assays for HBV, (Doong et al., 1991, Proc. Natl. Acad. Sci. U.S.A. 88:8495-8499) HSV-1, (Bastow et al., 1983, Antimicrob. Agents Chemother. 23: 914-917) HSV-2, (Bastow et al., 1983, Antimicrob. Agents Chemother. 23:914-917) EBV, (Yao et al., 1993, Antimicrob. Agents Chemother. 37:1420-1425), CMV (Andreoni et al., 2002, J. Med. Virol. 67:33-40) and HIV (Mellors et al., 1992, Mol. Pharmacol. 41: 446-451) were performed according to the previously reported procedures. […]
readout_name: inhibition at 3 µM
Quick note: unit goes after the number.

In the examples that follow, each entry is paired with its recorded inhibition at 3 µM.
compound: NC(=O)c1cc2ccc3c(c2c(-c2ccc4c(c2)OCO4)c1C(=O)O)OCO3
subject_of_test: HCV
inhibition at 3 µM: 58%
//
compound: O=C1OCc2c1cc1ccc3c(c1c2-c1ccc2c(c1)OCO2)OCO3 [Compound 2, reference compound]
subject_of_test: HCV
inhibition at 3 µM: 64%
//
compound: COc1ccc(-c2c(C(=O)O)c(C(N)=O)cc3ccc4c(c23)OCO4)cc1OC
subject_of_test: HCV
inhibition at 3 µM: 64%
//
compound: COc1ccc(-c2c3c(cc4ccc5c(c24)OCO5)C(=O)NC3)cc1OC
subject_of_test: HCV
inhibition at 3 µM: 80%

For CN1Cc2cc3ccc4c(c3c(-c3ccc5c(c3)OCO5)c2C1=O)OCO4 the compound record lists inhibition at 3 µM as 29%

---

Consider the following compounds; for each one, report its EC50.
- Test system: HSV-1
- assay_method_text: In vitro antiviral assay for HSV-1
- Assay type: cell-based, Herpes Simplex Virus 1
- applied_conditions: in vitro; read-out: Antiviral Activities (EC50, μM) HSV-1
Give bare numbers, in µM.

compound: Nc1nc2c(ncn2COCCO)c(=O)[nH]1 [ACV, reference compound]
unit_abbreviation: µM
data_value: 8

For O=c1[nH][nH]c(=O)c2c(-c3ccc4c(c3)OCO4)c3c4c(cc(Br)c3cc12)OCO4 the compound record lists EC50 as 16

---

- assay_method_text: Cell cytotoxicity assay on CEM cells
- Format: cell-based
- applied_conditions: human, read-out: Cytotoxity (ID50, μM) CEM
readout_name: log10 IC50 (log10 of the value in µM)
// stored as log10 of IC50 expressed in µM

In the examples that follow, each entry is paired with its recorded log10 IC50.
compound: O=C1c2cc3ccc4c(c3c(-c3ccc5c(c3)OCO5)c2CN1CCCO)OCO4 [Compound 21]
log10 IC50: 1.34
--
compound: O=C1OCc2c1cc1c(I)cc3c(c1c2-c1ccc2c(c1)OCO2)OCO3 [Compound 39]
log10 IC50: 1.85
--
compound: O=c1[nH][nH]c(=O)c2c(-c3ccc4c(c3)OCO4)c3c4c(ccc3cc12)OCO4 [Compound 28]
log10 IC50: 1.70

Your task in this section: give log10 IC50 for each listed record.
1. CC(=O)NN1C(=O)c2cc3ccc4c(c3c(-c3ccc5c(c3)OCO5)c2C1=O)OCO4 [Compound 25]
2. O=C(NCCCOCc1ccccc1)c1cc2ccc3c(c2c(-c2ccc4c(c2)OCO4)c1COCc1ccccc1)OCO3 [Compound 8]

1. 1.97
2. 1.00

Your task in this section: give log10 IC50 for each listed record.
1. O=C1c2cc3ccc4c(c3c(-c3ccc5c(c3)OCO5)c2C(=O)N1CCCO)OCO4 [Compound 29]
2. Nc1ccn([C@H]2CC[C@@H](CO)O2)c(=O)n1 [ddC, 2′,3′-Dideoxycytidine, reference compound]
3. O=C1OCc2c1cc1c(Cl)cc3c(c1c2-c1ccc2c(c1)OCO2)OCO3 [Compound 37]
4. CC(=O)NN1Cc2c(cc3ccc4c(c3c2-c2ccc3c(c2)OCO3)OCO4)C1=O [Compound 26]
5. COC(=O)c1c(C(=O)O)cc2ccc3c(c2c1-c1ccc2c(c1)OCO2)OCO3 [Compound 31]

1: 1.43; 2: 0.70; 3: 1.43; 4: 1.60; 5: 1.87

---

- assay_method_text: Cell cytotoxicity assay on MT-2 cells
- Type: cell-based
- applied_conditions: human, read-out: Cytotoxity (ID50, μM) MT-2
readout_name: IC50

In the examples that follow, each entry is paired with its recorded IC50.
compound: Nc1ccn([C@H]2CC[C@@H](CO)O2)c(=O)n1 [ddC, 2′,3′-Dideoxycytidine, reference compound]
IC50: 70 µM
--
compound: COc1ccc(-c2c3c(cc4ccc5c(c24)OCO5)C(=O)NC3)cc1OC [Compound 22]
IC50: 16 µM
--
compound: CN1C(=O)c2cc3ccc4c(c3c(-c3ccc5c(c3)OCO5)c2C1=O)OCO4 [Compound 23]
IC50: > 100 µM

Please turn your attention to the following entry.
For O=C1OCc2c1cc1ccc3c(c1c2-c1ccc2c(c1)OCO2)OCO3 [Compound 2, reference compound] the compound record lists IC50 as 2.5 µM

---

- assay_method_text: Cell cytotoxicity assay on MT-2 cells
- Format: cell-based
- applied_conditions: human, read-out: Cytotoxity (ID50, μM) MT-2
- Procedure: Cytotoxicities of test compounds on MT-2 (Mellors et al., 1992 Mol. Pharmacol. 41:446-451) and CEM (Grove et al., 1995, Cancer Res. 55:3008-3011) cells were determined according to the previously reported procedures. […] The absorbance at 595 nm was measured with a microplate reader (Molecular Devices Corp. Sunnyvale, Calif.). The cytotoxicity to CEM cell was calculated as described previously (Grove et al., 1995, Cancer Res. 55 (14): 3008-3011).
Quick rule for you: IC50 under 20 µM gets satisfied, anything else gets not satisfied.

smiles_representation: CN(C)C(=O)c1cc2ccc3c(c2c(-c2ccc4c(c2)OCO4)c1C(=O)O)OCO3
category: not satisfied
--
smiles_representation: CCOC(=O)c1c(C(=O)OCC)c(-c2ccc3c(c2)OCO3)c2c3c(ccc2c1OC)OCO3
category: not satisfied
--
smiles_representation: CCOC(=O)c1c(C(=O)OCC)c(-c2ccc3c(c2)OCO3)c2c3c(ccc2c1O)OCO3
category: satisfied
--
smiles_representation: CC(=O)NN1Cc2c(cc3ccc4c(c3c2-c2ccc3c(c2)OCO3)OCO4)C1=O
category: satisfied

Please find the next compound below.
Strictly below 20 µM in IC50? CNC(=O)c1cc2ccc3c(c2c(-c2ccc4c(c2)OCO4)c1C(=O)O)OCO3
not satisfied

---

- Tested on: wt (adr) HBV
- assay_method_text: Extracellular HBV DNA in W10 cells, real-time PCR
- Assay type: cell-based
- applied_conditions: Hepatitis B virus, 144 h, 6-day treatment, HBV DNA in medium by real-time PCR
Consider the following molecules; for each one, report its EC50.
Numbers only, in µM.

In the examples that follow, each entry is paired with its recorded EC50.
molecule: Nc1ccn([C@@H]2CS[C@H](CO)O2)c(=O)n1
unit_abbreviation: µM
data_value: 0.02

molecule: O=C1OCc2c1cc1ccc3c(c1c2-c1ccc2c(c1)OCO2)OCO3 [Compound 2, reference compound]
unit_abbreviation: µM
data_value: 0.4

Please turn your attention to the following entry.
For COc1ccc(-c2c3c(cc4ccc5c(c24)OCO5)C(=O)NC3)cc1OC the molecule record lists EC50 as 0.004

---

Consider the following compounds; for each one, report its melting point.

compound: O=C1OCc2c1cc1c(Br)cc3c(c1c2-c1ccc2c(c1)OCO2)OCO3 [Compound 38]
melting point: 256 °C (dec.)

compound: O=C(O)c1cc2ccc3c(c2c(-c2ccc4c(c2)OCO4)c1C(=O)O)OCO3 [Compound 32]
melting point: 253 °C (dec.)

compound: COC1=NC(=O)c2c1cc1ccc3c(c1c2-c1ccc2c(c1)OCO2)OCO3 [Compound 23]
melting point: 306 to 308 °C

compound: O=C([O-])c1cc2c(Cl)cc3c(c2c(-c2ccc4c(c2)OCO4)c1CO)OCO3.[Na+] [Compound 44]
melting point: 220 °C (dec.)

compound: O=C1c2cc3ccc4c(c3c(-c3ccc5c(c3)OCO5)c2C(=O)N1CCCO)OCO4 [Compound 29]
melting point: 150 to 152 °C

compound: O=c1[nH][nH]c(=O)c2c(-c3ccc4c(c3)OCO4)c3c4c(cc(Cl)c3cc12)OCO4 [Compound 41]
melting point: 316 °C (dec.)

compound: CN1Cc2c(cc3ccc4c(c3c2-c2ccc3c(c2)OCO3)OCO4)C1=O [Compound 19]
melting point: 234 to 236 °C

compound: O=C1c2cc3ccc4c(c3c(-c3ccc5c(c3)OCO5)c2C(=O)N1O)OCO4 [Compound 24]
melting point: 255 °C (dec.)

compound: O=C1OCc2c1cc1c(Cl)cc3c(c1c2-c1ccc2c(c1)OCO2)OCO3 [Compound 37]
melting point: 267 °C (dec.)

compound: CN1Cc2cc3ccc4c(c3c(-c3ccc5c(c3)OCO5)c2C1=O)OCO4 [Compound 17]
melting point: 242 to 244 °C

Your task in this section: give melting point for each listed record.
1. COc1ccc(-c2c3c(cc4ccc5c(c24)OCO5)C(=O)NC3)cc1OC [Compound 22]
2. O=C1c2cc3ccc4c(c3c(-c3ccc5c(c3)OCO5)c2CN1CCCO)OCO4 [Compound 21]
3. COC(=O)c1cc2ccc3c(c2c(-c2ccc4c(c2)OCO4)c1C(=O)OC)OCO3 [Compound 30]
4. O=c1[nH][nH]c(=O)c2c(-c3ccc4c(c3)OCO4)c3c4c(cc(I)c3cc12)OCO4 [Compound 43]
5. O=C(O)c1cc2ccc3c(c2c(-c2ccc4c(c2)OCO4)c1COCc1ccccc1)OCO3 [Compound 5]

1. 258 °C (dec.)
2. 213 to 215 °C
3. 157 to 159 °C
4. 300 °C (dec.)
5. 219 to 221 °C
